- testSystem: H9 HA A/HK/1073/99 (ELISA antigen) (influenza A virus A/HK/1073/99 (H9))
- procedureText: ELISA
endpointLabel: K50 (µg/mL)
Just the number in µg/mL, nothing appended.

Entry FC6 (antibody, V domains shown) VH: QGQLVQSGAEVKKSGSSVKVSCKTSGGTFNSHAISWVRQAPGQGLEWIGGIIPMFGTTNYAQKLKGRIAITADQLPTTAYLELSSLRSEDTAVYYCARGQRYYYDRDGMDVWGQGTMVTVSS VL: EIVMTQTPLSLSVTPGQPASISCRSSQSLLHSDGKTYLYWYLQKPGQPPQLLISEVFNRFSGVPDRFSGSGSGTDFTLKISRVEAEDVGVYYCMQSLQLPLTFGGGTKVEIK : reported K50 = ?
0.15

Need K50, item FE43 (antibody, V domains shown) VH: QVHLVQSGAEVKKPGSSVRLSCSASGGPFSGFAISWLRQAPGQGLEWLGGISAVFGTATYAQKFQGRVTITADQFTSTSHMDLSRLTYDDTAVYYCARSGGYLPQNNWIDPWGQGTLVIVSS VL: DIVMTQTPLSLSVTPGQPASISCKSSQSLLHSDGKTYLYWYLQKPGQSPQLLIYEVSNRFSGVPDRFSGSGSGTDFTLKISRVEAEDVGVYYCMQNILLPLTFGGGTKVEIK
0.307

GET /values?readout=K50&item= FE53 (antibody, V domains shown) VH: QVQLVQSGAEVKKPGSSVKVSCKASGVTSSNYPITWVRQAPGQGLEWMGGVLPLFGVTNYAQKFQGRVTISADKSTNTAYMELSSLRSEDTAVYYCARGKRPGYCSGGVCSSDYWGQGTLVTVSS VL: DIQMTQSPSSLSASVGDRVSITCQASQDISRYLNWYQQKPGEAPKLLIYDASNLETGVPSRFSGSGSGTDFTFTISSLQPEDIATYFCQQYGYLPLTFGPGTKVDSK
0.014

Which K50 reading was recorded for the binder FB139 (antibody, V domains shown) VH: QVQLVQSGAEVKKAGSSVKVSCQSSGVTFSMYAVSWVRQAPGQGLEWMGGIIPLFGTTTYAQKFEGRLTITADTSTNMAYLELRSLRSEDTAVYFCARAGTTVTRFNWFDPWGQGTLVTVSS VL: EVVLTQSPGTLSLSPGQRATLSCRASQSVSSSYLAWYQQKPGQAPRLLIYDASNRATGIPDRFSGSGSGTDFTLTISRLEPEDFAVYYCQQYGSSPYTFGQGTKLEIK ?
0.066
